Origin of values: patent US11299501B2

Overview of recorded pIC50 for various molecules
- assayed-system: human TLR9 (Homo sapiens, UniProt Q9NR96)
- Sequence (Q9NR96 26-1032): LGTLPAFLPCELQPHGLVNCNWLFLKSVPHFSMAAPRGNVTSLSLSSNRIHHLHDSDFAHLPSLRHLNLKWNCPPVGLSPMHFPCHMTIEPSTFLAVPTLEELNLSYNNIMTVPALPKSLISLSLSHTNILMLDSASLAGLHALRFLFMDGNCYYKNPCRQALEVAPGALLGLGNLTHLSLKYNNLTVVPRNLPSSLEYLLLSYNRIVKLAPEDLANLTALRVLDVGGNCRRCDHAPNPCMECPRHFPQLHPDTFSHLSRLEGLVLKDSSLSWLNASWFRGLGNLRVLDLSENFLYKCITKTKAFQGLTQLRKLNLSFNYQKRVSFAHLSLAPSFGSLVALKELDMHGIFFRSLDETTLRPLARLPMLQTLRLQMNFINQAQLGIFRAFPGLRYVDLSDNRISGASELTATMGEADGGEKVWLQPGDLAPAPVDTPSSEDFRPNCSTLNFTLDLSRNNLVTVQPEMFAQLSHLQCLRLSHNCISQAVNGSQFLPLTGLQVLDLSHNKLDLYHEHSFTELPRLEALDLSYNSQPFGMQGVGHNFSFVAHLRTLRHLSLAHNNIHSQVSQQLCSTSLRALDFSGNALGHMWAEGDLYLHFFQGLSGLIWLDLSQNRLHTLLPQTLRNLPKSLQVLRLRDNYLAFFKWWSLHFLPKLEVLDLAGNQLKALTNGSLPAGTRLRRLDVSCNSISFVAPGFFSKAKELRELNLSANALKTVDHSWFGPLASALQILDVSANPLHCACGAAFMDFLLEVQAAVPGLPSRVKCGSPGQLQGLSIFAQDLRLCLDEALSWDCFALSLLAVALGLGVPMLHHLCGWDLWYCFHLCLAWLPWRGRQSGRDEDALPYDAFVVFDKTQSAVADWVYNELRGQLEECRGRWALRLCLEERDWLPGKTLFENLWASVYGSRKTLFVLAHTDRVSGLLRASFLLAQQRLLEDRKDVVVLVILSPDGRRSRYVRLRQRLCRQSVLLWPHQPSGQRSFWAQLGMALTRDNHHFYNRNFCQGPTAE
- test-summary: TLR9 inhibition reporter assay (HEK-Blue SEAP)
- condition-info: cells overexpressing human TLR9, SEAP reporter, stimulated with ODN2006 5 nM, 22 hour incubation
pIC50: −log10 of the molar value.

test-smiles	metric-name	result
CNC(=O)CN1CCC(c2ncc3[nH]c(-c4cn5ncnc5c(C)c4C)c(C(C)C)c3n2)CC1	pIC50	4.30 to 6.00
Cc1cc(-c2[nH]c3cnc(C4CCNCC4)nc3c2C(C)C)cn(C)c1=O	pIC50	4.30 to 6.00

// moving on: another record for pIC50
Recorded pIC50 (molecule COc1ccc(-c2[nH]c3cnc(C4CCNCC4)nc3c2C(C)C)cc1OC ): 6.00 to 7.00

----------
- assayed-system: human TLR9 (Homo sapiens, UniProt Q9NR96)
- test-summary: TLR9 inhibition reporter assay (HEK-Blue SEAP)
- condition-info: cells overexpressing human TLR9, SEAP reporter, stimulated with ODN2006 5 nM, 22 hour incubation
metric-name: IC50

Known IC50 results, listed for orientation:
compound	IC50
Cc1c(-c2[nH]c3cnc(C4CCN(CC(C)(C)O)CC4)nc3c2C(C)C)cn2ncnc2c1C [Example 27]	1 to 50 µM
Cc1cc(-c2[nH]c3cnc(C4CCN(C)CC4)nc3c2C(C)C)cn(C)c1=O [Example 34]	1 to 50 µM
CCc1c(-c2ccc(OC)c(OC)c2)[nH]c2cnc(C3CCN(Cc4nc(C)c[nH]4)CC3)nc12 [Example 52]	1 to 50 µM
CCc1c(-c2ccc(OC)c(OC)c2)[nH]c2ncc(C3CCNCC3)nc12 [Example 3]	0.1 to 1 µM
CCc1c(-c2ccc(OC)c(OC)c2)[nH]c2cnc(-c3nnc(C[C@@H]4CCCCN4)o3)nc12 [Example 46]	1 to 50 µM

// CCc1c(-c2ccc(OC)c(OC)c2)[nH]c2cnc(-c3nnc([C@H]4CCCNC4)o3)nc12 [Example 40] : IC50 value = 0.1 to 1 µM

Noted for CCc1c(-c2ccc(OC)c(OC)c2)[nH]c2cnc(-c3nnc([C@@H]4CCNC4)o3)nc12 [Example 41] : its IC50 reads 1 to 50 µM

The measured IC50 associated with CCc1c(-c2ccnc3[nH]ncc23)[nH]c2cnc(C3CCN(C4CCN(C(C)C)CC4)CC3)nc12 [Example 25] reads 0.1 to 1 µM

Form field IC50, entry Cc1c(-c2[nH]c3cnc(C4CCN(C(=O)CN(C)C)CC4)nc3c2C(C)C)cn2ncnc2c1C [Example 28] : 1 to 50 µM

Kindly note the recorded IC50 for CNC(=O)CN1CCC(c2ncc3[nH]c(-c4cc(OC)c5ncnn5c4)c(C(C)C)c3n2)CC1 [Example 35] , which is > 50 µM

For record Cc1c(-c2[nH]c3cnc(C4CCN(C5CCOCC5)CC4)nc3c2C(C)C)cn2ncnc2c1C [Example 13] the listed IC50 is 1 to 50 µM

IC50 measured on COc1ccc(-c2[nH]c3cnc(C4CCN(C5CCN(CC(C)C)CC5)CC4)nc3c2C)cc1OC [Example 6] = 0.1 to 1 µM

Record Cc1cc(-c2[nH]c3cnc(C4CCN(CC(C)(C)O)CC4)nc3c2C(C)C)cn2ncnc12 [Example 20] . Reported IC50: 1 to 50 µM

IC50 reading for CCc1c(-c2ccc(OC)c(OC)c2)[nH]c2cnc(-c3nnc(C[C@H]4CCCCN4)o3)nc12 [Example 36] : 1 to 50 µM

// recorded IC50 for Cc1cc(-c2[nH]c3cnc(C4CCN(C5CCOCC5)CC4)nc3c2C(C)C)cn(C)c1=O [Example 21] : 0.1 to 1 µM

IC50 in this record for COc1cc(-c2[nH]c3cnc(C4CCN(CC#N)CC4)nc3c2C(C)C)cn2ncnc12 [Example 59] : 0.1 to 1 µM

CCc1c(-c2ccc(OC)c(OC)c2)[nH]c2ncc(C3CCN(C(=O)CN(C)C)CC3)nc12 [Example 4] yielded IC50 of 1 to 50 µM

Lab note: measured IC50 of COc1cc(-c2[nH]c3cnc(C4CCN(C5COC5)CC4)nc3c2C(C)C)cn2ncnc12 [Example 14] was 1 to 50 µM

compound Cc1cc(-c2[nH]c3cnc(C4CCN(CC(=O)N(C)C)CC4)nc3c2C(C)C)cn2ncnc12 [Example 29] , IC50 observed: 1 to 50 µM

Query CCc1c(-c2ccc(OC)c(OC)c2)[nH]c2nnc(C3CCN(C4CCN(C(C)C)CC4)CC3)cc12 [Example 2] yields IC50 of 0.1 to 1 µM

What the record says about CCc1c(-c2ccc(OC)c(OC)c2)[nH]c2cnc(-c3nnc(CCN(C)C)o3)nc12 [Example 48] : IC50 is 1 to 50 µM

According to the records, this compound CCc1c(-c2ccc(OC)c(OC)c2)[nH]c2cnc(C3CCN(CC(=O)NC)CC3)nc12 [Example 50] displays IC50 of 1 to 50 µM

----------
# Lookup of reported IC50 keyed by entry
- assayed-system: human TLR7 (Homo sapiens)
- Sequence (Q9NYK1 27-1049): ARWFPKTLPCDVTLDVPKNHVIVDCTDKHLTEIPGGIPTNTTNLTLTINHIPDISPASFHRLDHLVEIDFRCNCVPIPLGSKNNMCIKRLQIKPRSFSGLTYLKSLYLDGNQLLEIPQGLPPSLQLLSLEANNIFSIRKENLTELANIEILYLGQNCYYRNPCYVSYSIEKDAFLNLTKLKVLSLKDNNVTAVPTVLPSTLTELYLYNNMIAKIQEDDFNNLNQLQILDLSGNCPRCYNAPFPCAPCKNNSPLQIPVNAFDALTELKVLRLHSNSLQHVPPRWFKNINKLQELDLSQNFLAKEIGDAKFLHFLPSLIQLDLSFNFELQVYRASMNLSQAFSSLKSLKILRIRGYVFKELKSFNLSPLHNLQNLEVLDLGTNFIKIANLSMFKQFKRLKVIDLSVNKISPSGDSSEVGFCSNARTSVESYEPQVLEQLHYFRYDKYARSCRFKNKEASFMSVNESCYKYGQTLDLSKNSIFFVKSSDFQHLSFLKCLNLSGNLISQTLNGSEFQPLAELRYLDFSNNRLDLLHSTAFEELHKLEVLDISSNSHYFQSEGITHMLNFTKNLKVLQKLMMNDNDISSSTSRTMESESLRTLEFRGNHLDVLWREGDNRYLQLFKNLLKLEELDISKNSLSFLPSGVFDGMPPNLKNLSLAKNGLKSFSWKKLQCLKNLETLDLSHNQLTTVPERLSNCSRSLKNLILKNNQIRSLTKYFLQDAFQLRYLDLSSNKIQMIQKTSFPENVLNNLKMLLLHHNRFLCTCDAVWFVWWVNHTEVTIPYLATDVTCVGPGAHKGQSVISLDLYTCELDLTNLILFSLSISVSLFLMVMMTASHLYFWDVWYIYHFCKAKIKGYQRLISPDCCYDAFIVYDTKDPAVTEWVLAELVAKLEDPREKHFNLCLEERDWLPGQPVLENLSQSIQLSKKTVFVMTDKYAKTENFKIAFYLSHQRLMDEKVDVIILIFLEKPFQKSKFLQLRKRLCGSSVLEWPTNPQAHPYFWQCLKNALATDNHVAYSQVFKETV
- test-summary: TLR7 inhibition reporter assay (HEK-Blue SEAP)
- condition-info: cells overexpressing human TLR7, SEAP reporter, stimulated with gardiquimod 7.5 μM, 22 hour incubation

Completed entries (count: 3):
test-smiles	result
CCc1c(-c2ccnc3[nH]ncc23)[nH]c2cnc(C3CCN(C4CCN(C(C)C)CC4)CC3)nc12	100 to 1000 nM
CCc1c(-c2ccc(OC)c(OC)c2)[nH]c2ncc(C3CCN(C(=O)CN(C)C)CC3)nc12	100 to 1000 nM
Cc1cc(-c2[nH]c3cnc(C4CCN(C5CCOCC5)CC4)nc3c2C(C)C)cn(C)c1=O	< 100 nM

// assay human TLR7 (Homo sapiens), entry COc1ccc(-c2[nH]c3cnc(C4CCN(C5CCN(C(C)C)CC5)CC4)nc3c2C(C)C)cc1OC , IC50 value = < 100 nM

----------
- assayed-system: human TLR9 (Homo sapiens, UniProt Q9NR96)
- test-summary: TLR9 inhibition reporter assay (HEK-Blue SEAP)
- condition-info: cells overexpressing human TLR9, SEAP reporter, stimulated with ODN2006 5 nM, 22 hour incubation
pIC50: −log10 of the molar value.
Form field: pIC50 (one value per entry).

Reported pIC50 for CCc1c(-c2ccc(OC)c(OC)c2)[nH]c2cnc(-c3nnc(N)o3)nc12 [Example 53] was < 4.30

Recorded result, CCc1c(-c2ccc(OC)c(OC)c2)[nH]c2cnc(-c3nnc(C[C@@H]4CCCN4)o3)nc12 [Example 45] , pIC50: 4.30 to 6.00

# pIC50 (molecule: Cc1c(-c2[nH]c3cnc(C4CCN(C5COC5)CC4)nc3c2C(C)C)cn2ncnc2c1C [Example 19] ) is 4.30 to 6.00

// pIC50 lookup, molecule = CCc1c(-c2ccc(OC)c(OC)c2)[nH]c2ncc(C3CCN(C4CCN(C(C)C)CC4)CC3)nc12 [Example 5] , result: 6.00 to 7.00

Quick note, pIC50 for Cc1cc(-c2[nH]c3cnc(C4CCN(C5COC5)CC4)nc3c2C(C)C)cn2ncnc12 [Example 24] landed at 4.30 to 6.00

Noted for CCc1c(-c2ccc(OC)c(OC)c2)[nH]c2cnc(C3CCN(C4CCN(C(C)C)CC4)CC3)nc12 [Example 26] : its pIC50 reads 6.00 to 7.00

Input COc1cc(-c2[nH]c3cnc(C4CCN(C(=O)CN(C)C)CC4)nc3c2C(C)C)cn2ncnc12 [Example 11] . Output pIC50: 4.30 to 6.00

The recorded pIC50 for entry COc1cc(-c2[nH]c3cnc(C4CCN(CC(C)(C)O)CC4)nc3c2C(C)C)cn2ncnc12 [Example 15] equals 4.30 to 6.00
